# measured_target: Factor D (Homo sapiens (Human), UniProt P00746)
# Sequence (P00746 26-253): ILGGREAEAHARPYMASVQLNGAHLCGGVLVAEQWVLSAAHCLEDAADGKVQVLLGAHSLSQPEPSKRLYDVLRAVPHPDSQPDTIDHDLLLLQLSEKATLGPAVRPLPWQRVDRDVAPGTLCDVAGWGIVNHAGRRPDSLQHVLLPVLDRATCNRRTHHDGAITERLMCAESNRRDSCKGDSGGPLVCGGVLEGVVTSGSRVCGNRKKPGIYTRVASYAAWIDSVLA
# protocol: biochemical
# Type: biochemical
# test_parameters: read-out: IC50
outcome_measure: IC50 (nM)
Respond numerically; units are nM and should not be typed.

>  <compound>
NC(=O)n1cc(NC(=O)N2C[C@@H](N)C[C@H]2C(=O)NCc2ccccc2-c2ccccc2)c2ccccc21

>  <quantity_unit>
nM

>  <IC50>
8500

$$$$
>  <compound>
COc1ccc(CNC(=O)[C@@H]2SCCN2C(=O)Nc2cn(C(N)=O)c3ccccc23)c(F)c1F

>  <quantity_unit>
nM

>  <IC50>
350

$$$$
>  <compound>
NC(=O)n1cc(NC(=O)N2N=CCC2C(=O)NCc2cccc(Cl)c2)c2ccccc21 (centres unmarked)

>  <quantity_unit>
nM

>  <IC50>
25

$$$$
>  <compound>
CC(C)(O)COc1ccc2c(c1)c(NC(=O)N1C3CC3C[C@H]1C(=O)NCc1cccc(Cl)c1F)cn2C(N)=O (some centres unmarked)

>  <quantity_unit>
nM

>  <IC50>
8

$$$$
>  <compound>
NC(=O)n1cc(NC(=O)N2CCS[C@H]2C(=O)Nc2cncc(Br)c2)c2ccccc21

>  <quantity_unit>
nM

>  <IC50>
85

$$$$

Input: What value of measured IC50 is listed for CO[C@H]1[C@@H](C(=O)N[C@H](C)c2cccc(Cl)c2F)N(C(=O)Cn2cc(C(C)=O)c3ccccc32)C[C@@H]1F ?
Output: 27

Input: What value of measured IC50 is listed for CC(=O)n1cc(CC(=O)N2CCC[C@H]2C(=O)Nc2cccc(OC(F)(F)F)c2)c2ccccc21 ?
Output: 4800

Input: What value of measured IC50 is listed for NC(=O)n1cc(NC(=O)N2[C@@H](c3ccccc3)CC[C@H]2C(=O)Nc2cccc(OC(F)(F)F)c2)c2ccccc21 ?
Output: 2260

Input: What value of measured IC50 is listed for NC(=O)n1cc(NC(=O)N2C[C@@](F)(CNC=O)C[C@H]2C(=O)NCc2cccc(Cl)c2F)c2ccccc21 ?
Output: 15

* * *

# measured_target: Factor D (Homo sapiens (Human), UniProt P00746)
# protocol: biochemical
# Type: biochemical
# test_parameters: read-out: IC50
outcome_measure: IC50
Please make sure the unit comes right after the number.

Consider the worked cases shown below.
>  <molecule>
CN(C)C[C@@]1(F)C[C@@H](C(=O)NCc2cccc(Cl)c2F)N(C(=O)Cc2cn(C(N)=O)c3ccccc23)C1

>  <measured_target>
Factor D (Homo sapiens (Human), UniProt P00746)

>  <result_value>
580 nM

$$$$
>  <molecule>
C[C@H]1CCN(C(=O)Nc2cn(C(N)=O)c3ccccc23)[C@@H]1C(=O)Nc1cccc(OC(F)(F)F)c1

>  <measured_target>
Factor D (Homo sapiens (Human), UniProt P00746)

>  <result_value>
800 nM

$$$$
>  <molecule>
NC(=O)n1cc(NC(=O)N2C[C@H](CO)C[C@H]2C(=O)NCc2cccc(Cl)c2F)c2ccccc21

>  <measured_target>
Factor D (Homo sapiens (Human), UniProt P00746)

>  <result_value>
200 nM

$$$$
>  <molecule>
NC(=O)n1cc(NC(=O)N2CC3CC3[C@H]2C(=O)NCc2cccc(Cl)c2F)c2ccccc21 (stereo partly shown)

>  <measured_target>
Factor D (Homo sapiens (Human), UniProt P00746)

>  <result_value>
59 nM

$$$$
>  <molecule>
NC(=O)n1cc(NC(=O)N2CCC[C@H]2C(=O)Nc2cccc(OC(F)(F)F)c2)c2ccc(Br)cc21

>  <measured_target>
Factor D (Homo sapiens (Human), UniProt P00746)

>  <result_value>
2650 nM

$$$$

Input: What value of measured IC50 is listed for COC(=O)C(CCC(F)(F)F)NC(=O)[C@@H]1C[C@H]2C[C@H]2N1C(=O)Cn1nc(C(C)=O)c2cccnc21 (stereo partly shown) ?
Output: 346 nM

Input: What value of measured IC50 is listed for NC(=O)c1cn(CC(=O)N2C[C@H](F)C[C@H]2C(=O)NCc2cccc(Cl)c2F)c2cc(OC(F)F)ccc12 ?
Output: 75 nM
